- MEASURED_TARGET: P-gp (Homo sapiens)
- Sequence (P08183 whole entry): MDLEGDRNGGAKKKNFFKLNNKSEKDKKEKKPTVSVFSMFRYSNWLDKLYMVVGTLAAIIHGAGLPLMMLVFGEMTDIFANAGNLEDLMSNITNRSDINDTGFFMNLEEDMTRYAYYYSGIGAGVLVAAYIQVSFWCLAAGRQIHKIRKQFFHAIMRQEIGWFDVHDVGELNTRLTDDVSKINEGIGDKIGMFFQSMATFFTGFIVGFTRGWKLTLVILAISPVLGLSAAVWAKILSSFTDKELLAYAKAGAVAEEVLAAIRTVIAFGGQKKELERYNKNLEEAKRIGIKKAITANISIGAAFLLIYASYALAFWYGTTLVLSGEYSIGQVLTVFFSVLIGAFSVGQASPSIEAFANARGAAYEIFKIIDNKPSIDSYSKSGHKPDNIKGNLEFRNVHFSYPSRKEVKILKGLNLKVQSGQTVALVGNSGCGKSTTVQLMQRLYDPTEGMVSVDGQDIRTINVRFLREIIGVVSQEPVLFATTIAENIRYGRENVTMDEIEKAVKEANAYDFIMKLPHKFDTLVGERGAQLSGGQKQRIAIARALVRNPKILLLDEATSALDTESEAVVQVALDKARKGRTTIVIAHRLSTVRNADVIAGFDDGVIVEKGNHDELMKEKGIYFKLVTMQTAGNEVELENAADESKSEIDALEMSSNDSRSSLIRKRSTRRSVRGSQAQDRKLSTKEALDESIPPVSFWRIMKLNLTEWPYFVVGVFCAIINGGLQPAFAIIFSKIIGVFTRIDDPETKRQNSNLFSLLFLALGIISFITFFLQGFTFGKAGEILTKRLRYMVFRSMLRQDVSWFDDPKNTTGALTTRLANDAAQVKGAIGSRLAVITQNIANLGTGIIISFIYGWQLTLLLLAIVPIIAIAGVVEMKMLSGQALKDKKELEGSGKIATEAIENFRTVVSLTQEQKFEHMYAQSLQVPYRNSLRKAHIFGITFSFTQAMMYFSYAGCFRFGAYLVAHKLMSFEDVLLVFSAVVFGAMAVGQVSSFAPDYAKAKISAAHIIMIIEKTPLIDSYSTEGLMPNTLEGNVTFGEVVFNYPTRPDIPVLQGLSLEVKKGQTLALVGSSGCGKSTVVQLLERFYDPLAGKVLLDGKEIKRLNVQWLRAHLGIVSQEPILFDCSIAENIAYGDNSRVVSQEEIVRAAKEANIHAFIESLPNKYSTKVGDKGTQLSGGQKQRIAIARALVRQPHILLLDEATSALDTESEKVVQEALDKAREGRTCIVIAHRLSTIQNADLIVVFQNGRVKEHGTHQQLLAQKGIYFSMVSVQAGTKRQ
- PROTOCOL: Study 006 cohort 2: effect of steady-state tezacaftor/ivacaftor on digoxin
- Format: in vivo
- STUDY_CONDITIONS: both, human, urine and plasma, oral, 0.5 mg
QUANTITY_MEASURED: CL renal (mL/min)
Only the number, expressed in mL/min, is required.

So what's the measured CL renal for this one? C[C@H]1O[C@@H](O[C@H]2[C@@H](O)C[C@H](O[C@H]3[C@@H](O)C[C@H](O[C@H]4CC[C@@]5(C)[C@H](CC[C@@H]6[C@@H]5C[C@@H](O)[C@]5(C)[C@@H](C7=CC(=O)OC7)CC[C@]65O)C4)O[C@@H]3C)O[C@@H]2C)C[C@H](O)[C@@H]1O [Digoxin, digoxin]
128
